Assay: Solubility determination for selected C5aR-antagonists
Format: physicochemical
Conditions: HEPES buffer pH 7.4
Protocol: Solubility Determination for Selected C5aR-Antagonists […] The undissolved part was removed by centrifugation after 24 h. The UV-absorption of the supernatant was measured and compared to a reference solution of the compound in 60% MeOH.
Starred links: 1 amine or outer side, 2 acyl side, 3 side chain; linkers in the order of their positions; H or OH if unused. Positions of bridges follow the written chain, without caps; N, C: chain ends. Non-standard residues stand in square brackets, D forms with d. Residues, ends and D or L forms follow the SMILES beside them. X1 = COC1O[C@H](C(=O)[*:2])[C@@H](O)[C@H](O)[C@H]1N[*:1]; Hyp = O=C(O)[C@@H]1C[C@@H](O)CN1; dCha = N[C@H](CC1CCCCC1)C(=O)O; Nle = CCCC[C@H](N)C(=O)O; Orn = NCCC[C@H](N)C(=O)O
Label label 0 if solubility in aqueous HEPES buffer (pH 7.4) falls below 80%; label label 1 in every other case.

Answered examples (4):
[
  {
    "Compound": "CC(=O)N[C@@H](Cc1ccccc1)C(=O)N[C@H]1CCCNC(=O)[C@H](Cc2ccccc2)NC(=O)[C@H](Cc2c[nH]c3ccccc23)NC(=O)[C@@H](CC2CCCCC2)NC(=O)[C@@H]2C[C@@H](O)CN2C1=O [Compound 2, Ac-Phe-[Orn-Hyp-cha-Trp-Phe]] (Ac-F[Orn][Hyp][dCha]WF; lactam 2-C)",
    "Assigned Class": "label 0"
  },
  {
    "Compound": "CCCC[C@@H]1NC(=O)[C@H](Cc2c[nH]c3ccccc23)NC(=O)[C@@H](CC2CCCCC2)NC(=O)[C@@H]2CCCN2C(=O)[C@@H](NC(=O)[C@H](Cc2ccccc2)NC(C)=O)CCCNC1=O [Compound 28, Ac-Phe-[Orn-Pro-cha-Trp-Nle]] (Ac-F[Orn]P[dCha]W[Nle]; lactam 2-C)",
    "Assigned Class": "label 0"
  },
  {
    "Compound": "CC(=O)N[C@@H](Cc1ccccc1)C(=O)N[C@H]1CCCNC(=O)[C@H](Cc2ccccc2)NC(=O)[C@H](Cc2c[nH]c3ccccc23)NC(=O)[C@@H](CC2CCCCC2)NC(=O)[C@@H]2CCCN2C1=O [Compound 1, Ac-Phe-[Orn-Pro-cha-Trp-Phe]] (Ac-F[Orn]P[dCha]WF; lactam 2-C)",
    "Assigned Class": "label 0"
  },
  {
    "Compound": "CCCC[C@@H]1NC(=O)[C@H](Cc2c[nH]c3ccccc23)NC(=O)[C@@H](CC2CCCCC2)NC(=O)[C@@H]2CCCN2C(=O)[C@@H](NC(=O)[C@H](Cc2ccccc2)NC(=O)[C@H]2OC(OC)[C@H](NC(C)=O)[C@@H](O)[C@@H]2O)CCCNC1=O (some centres unmarked) [Compound 4] (Ac-[X1]F[Orn]P[dCha]W[Nle]; lactam 3-C)",
    "Assigned Class": "label 1"
  }
]

I'd appreciate it if you could say whether CC(=O)N[C@@H](Cc1ccccc1)C(=O)N[C@H]1CCCNC(=O)[C@H](CCCNC(=N)N)NC(=O)[C@H](Cc2c[nH]c3ccccc23)NC(=O)[C@@H](CC2CCCCC2)NC(=O)[C@@H]2CCCN2C1=O [Compound 40, Ac-Phe-[Orn-Pro-cha-Trp-Arg], reference compound] has solubility in aqueous HEPES buffer (pH 7.4) at least equal to 80%.
label 1

----------
biological target: human C5aR(CD88) (Homo sapiens); construct: expressed in transfected cells; host or cells: rat basophilic leukemia cells (RBL); test: Determination of the IC50 value in an enzyme release assay (functional assay, antagonistic activity); assay type: cell-based; conditions: antagonistic activity; IC50 group in enzyme release assay, RBL cells expressing human C5aR(CD88); read-out: activity (group)
Starred links: 1 amine or outer side, 2 acyl side, 3 side chain; linkers in the order of their positions; H or OH if unused. Positions of bridges follow the written chain, without caps; N, C: chain ends. Non-standard residues stand in square brackets, D forms with d. Residues, ends and D or L forms follow the SMILES beside them. *: point of attachment. Propanoyl(3,3-Ph2) = O=C(CC(c1ccccc1)c1ccccc1)*; X7 = CC(=O)NCS(=O)(=O)C[C@H](N[*:1])C(=O)[*:2]; Phe(4-F) = N[C@@H](Cc1ccc(F)cc1)C(=O)O; Bta = N[C@@H](Cc1csc2ccccc12)C(=O)O; NEtPhe = CCN[C@@H](Cc1ccccc1)C(=O)O; Hyp = O=C(O)[C@@H]1C[C@@H](O)CN1; d(hLeu) = CC(C)CC[C@@H](N)C(=O)O; dCha = N[C@H](CC1CCCCC1)C(=O)O; Pip = O=C(O)[C@@H]1CCCCN1; Nle = CCCC[C@H](N)C(=O)O; Orn = NCCC[C@H](N)C(=O)O
Assay Endpoint: IC50

[
  {
    "Compound": "CCCC[C@@H]1NC(=O)[C@H](Cc2c[nH]c3ccccc23)NC(=O)[C@@H](CCC(C)C)NC(=O)[C@@H]2C[C@@H](O)CN2C(=O)[C@@H](NC(=O)[C@@H](N)Cc2ccccc2)CCCNC1=O [Compound 369, H-Phe-[Orn-Hyp-hle-Trp-Nle]] (H-F[Orn][Hyp][d(hLeu)]W[Nle]; lactam 2-C)",
    "Tested Target": "human C5aR(CD88) (Homo sapiens)",
    "Assay Endpoint": "IC50",
    "Experimental Result": "20 to 50 nM"
  },
  {
    "Compound": "CC(=O)NCS(=O)(=O)C[C@H](NC(=O)[C@H](Cc1ccccc1)NC(C)=O)C(=O)N1CCC[C@H]1C(=O)N[C@H](CC1CCCCC1)C(=O)N[C@@H](Cc1csc2ccccc12)C(=O)N[C@@H](Cc1ccccc1)C(N)=O [Compound 218, Ac-Phe-Eep-Pro-cha-Bta-Phe-NH2] (Ac-F[X7]P[dCha][Bta]F-NH2)",
    "Tested Target": "human C5aR(CD88) (Homo sapiens)",
    "Assay Endpoint": "IC50",
    "Experimental Result": "50 to 200 nM"
  },
  {
    "Compound": "CC(=O)N[C@@H](Cc1ccccc1)C(=O)N[C@@H](CCCN)C(=O)N1CCCC[C@H]1C(=O)N[C@H](CC1CCCCC1)C(=O)N[C@@H](Cc1c[nH]c2ccccc12)C(=O)N[C@@H](Cc1ccccc1)C(N)=O [Compound 55, Ac-Phe-Orn-Pip-cha-Trp-Phe-NH2] (Ac-F[Orn][Pip][dCha]WF-NH2)",
    "Tested Target": "human C5aR(CD88) (Homo sapiens)",
    "Assay Endpoint": "IC50",
    "Experimental Result": "20 to 50 nM"
  },
  {
    "Compound": "CCCC[C@@H]1NC(=O)[C@H](Cc2ccc(F)cc2)NC(=O)[C@@H](CCC(C)C)NC(=O)[C@@H]2CCCN2C(=O)[C@@H](NC(=O)[C@H](Cc2ccccc2)NCC)CCCNC1=O [Compound 319, Eth-Phe-[Orn-Pro-hle-Pff-Nle]] (H-[NEtPhe][Orn]P[d(hLeu)][Phe(4-F)][Nle]; lactam 2-C)",
    "Tested Target": "human C5aR(CD88) (Homo sapiens)",
    "Assay Endpoint": "IC50",
    "Experimental Result": "50 to 200 nM"
  }
]

What value of IC50 has been recorded for this entry: NCCC[C@H](NC(=O)CC(c1ccccc1)c1ccccc1)C(=O)N1CCC[C@H]1C(=O)N[C@H](CC1CCCCC1)C(=O)N[C@@H](Cc1c[nH]c2ccccc12)C(=O)N[C@@H](Cc1ccccc1)C(N)=O [Compound 70, Ph2-CH—CH2—CO-Orn-Pro-cha-Trp-Phe-NH2] ({Propanoyl(3,3-Ph2)}-[Orn]P[dCha]WF-NH2)
200 to 2000 nM

----------
Biological target: human C5aR(CD88) (Homo sapiens)
Construct: expressed in transfected cells; host or cells: rat basophilic leukemia cells (RBL)
Sequence (P21730 1-350): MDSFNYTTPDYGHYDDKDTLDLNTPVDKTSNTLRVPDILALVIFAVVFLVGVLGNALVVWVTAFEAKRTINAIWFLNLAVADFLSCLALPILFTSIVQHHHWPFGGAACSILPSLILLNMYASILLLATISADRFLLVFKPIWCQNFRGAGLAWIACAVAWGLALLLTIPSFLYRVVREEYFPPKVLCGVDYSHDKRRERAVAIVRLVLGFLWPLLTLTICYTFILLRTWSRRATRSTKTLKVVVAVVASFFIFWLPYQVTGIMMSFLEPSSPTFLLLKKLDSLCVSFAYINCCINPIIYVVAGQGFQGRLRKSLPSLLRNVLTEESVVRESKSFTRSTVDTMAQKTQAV
Assay: Determination of the IC50 value in an enzyme release assay (functional assay, antagonistic activity)
Assay type: cell-based
Settings: antagonistic activity; IC50 group in enzyme release assay, RBL cells expressing human C5aR(CD88); read-out: activity (group)
pIC50: −log10 of the molar value. Positions of bridges follow the written chain, without caps; N, C: chain ends. Non-standard residues stand in square brackets, D forms with d. Residues, ends and D or L forms follow the SMILES beside them. *: point of attachment. Orn(2-imidazolinyl) = N[C@@H](CCCNC1=NCCN1)C(=O)O; Phe(Nα-CONH2) = NC(=O)N[C@@H](Cc1ccccc1)C(=O)*; Bta = N[C@@H](Cc1csc2ccccc12)C(=O)O; Hyp = O=C(O)[C@@H]1C[C@@H](O)CN1; d(hLeu) = CC(C)CC[C@@H](N)C(=O)O; dCha = N[C@H](CC1CCCCC1)C(=O)O; Orn = NCCC[C@H](N)C(=O)O; Aze = O=C(O)[C@@H]1CCN1
Kindly supply the reported pIC50 values for the records listed here.

As a guide, the following entries are already answered.
[
  {
    "Compound": "NC(=O)N[C@@H](Cc1ccccc1)C(=O)N[C@H]1CCCNC(=O)[C@H](Cc2ccccc2)NC(=O)[C@H](Cc2c[nH]c3ccccc23)NC(=O)[C@@H](CC2CCCCC2)NC(=O)[C@@H]2C[C@@H](O)CN2C1=O [Compound 323, Fai-Phe-[Orn-Hyp-cha-Trp-Phe]] ({Phe(Nα-CONH2)}-[Orn][Hyp][dCha]WF; lactam 1-C)",
    "Experimental Result": "6.70 to 7.30"
  },
  {
    "Compound": "CC(=O)N[C@@H](Cc1ccccc1)C(=O)N[C@@H](CCCNC1=NCCN1)C(=O)N1CCC[C@H]1C(=O)N[C@H](CC1CCCCC1)C(=O)N[C@@H](Cc1csc2ccccc12)C(=O)N[C@@H](Cc1ccccc1)C(N)=O [Compound 150, Ac-Phe-Arg(CH2—CH2)-Pro-cha-Bta-Phe-NH2] (Ac-F[Orn(2-imidazolinyl)]P[dCha][Bta]F-NH2)",
    "Experimental Result": "8.00 to 8.30"
  }
]

Now consider a different compound.
What value of pIC50 has been recorded for this entry: CC(=O)N[C@@H](Cc1ccccc1)C(=O)N[C@@H](CCCN)C(=O)N1CC[C@H]1C(=O)N[C@H](CCC(C)C)C(=O)N[C@@H](Cc1csc2ccccc12)C(=O)N[C@@H](Cc1ccccc1)C(N)=O [Compound 234, Ac-Phe-Orn-Aze-hle-Bta-Phe-NH2] (Ac-F[Orn][Aze][d(hLeu)][Bta]F-NH2)
7.30 to 7.70
